# Tested on: A549/ATCC NSCLC
# test.summary: NCI-60 one-dose screen, 48 h (100 = growth as untreated, 0 = no growth, -100 = all killed)
# applied.conditions: 10 µM
About 83,000 compounds went through this panel and 20% of them were active in at least one assay; those are over-represented in the sample as a whole.
Tick 1 if growth is 90% or greater. Tick 0 if growth is less than 90%.

>>> print(df.to_string())
                                    compound  discrete_label
 0                 CC(=O)Oc1ccc(Br)cc1C(=O)O               1
 1  CC(C)(C)n1nc(C2CC2)c(Br)c1NC(=O)c1ccccc1F               1
 2                 C=CCc1cc(C(C)=O)cc(OC)c1O               1
 3          C=C[Si](OC(C)=O)(OC(C)=O)OC(C)=O               1
 4                         Oc1ccccc1-c1nnco1               1
 5                               CCOC(=O)CNN               1
 6  O=S(=O)(O)CC(O)CN1CCN(CCO)CC1 (centres undefined)               1
 7             Nc1ccccc1C(=O)Nc1ccc(Cl)cc1Cl               1
 8                 N/N=C(/Cc1ccccc1)NNC(N)=S               0
 9  OCC(O)C(O)C(O)C(O)/C=N/O (centres undefined)               0
10              Cc1cc(=O)[nH]c(NN=C2CCCC2)n1               1
11      CCCCC(O)c1ccccc1 (centres undefined)               1
12                 COCCOC(=O)c1ccc(C(C)C)cc1               0
13     CCN1C(=O)/C(=C/C=C/N(C)c2ccccc2)SC1=S               0
14                             Cc1cc(O)ccc1O               1
15         N#C/C(=C\c1cc(O)c(O)c(O)c1)C(N)=O               1
16         CCOC(=O)c1coc(C(=O)OCC)c1C(=O)OCC               1
17       COCCCC/C(=N\OCCN)c1ccc(C(F)(F)F)cc1               1
18         O=c1cc(-c2ccccc2)oc2c1ccc1ccccc12               0
19   O=C(Nc1cc(-c2ccccc2)[nH]n1)c1ccc(Cl)cc1               0
20                          O=C(NCO)c1ccccc1               1
21                  Cc1nc2ccccc2c(C(=O)O)c1O               1
22                    CC(=O)Nc1c(C)cc(C)cc1C               1
23                    C=CCNC(=O)c1ccc(OC)cc1               0
24                       CCOC(=O)CCCC(=O)OCC               1
25                  Cc1cc(C)c(CC(=O)O)c(C)c1               1
26                          NC(=S)NN=C1CCCC1               0
27      N#Cc1ccc(OC(=O)Nc2ccc(Cl)c(Cl)c2)cc1               0
28       CCCC(C)OCC(=O)O (centres undefined)               1
29           CCOc1ccc(/C=C/C(=O)c2ccccc2)cc1               1
30  CC1NC(=O)NC1CCCCCC(=O)O (centres undefined)               1
31   Cc1cc2nc(CC(=O)c3ccccc3)c(=O)[nH]c2cc1C               1
32  COc1ccc(-c2cc(-c3cc(-c4ccc(OC)cc4)nc(N)n3)nc(N)n2)cc1               1
33              CC(=O)c1ccc2c(ccc3ccccc32)c1               1
34     O=[N+]([O-])c1cccc(N=Nc2ccc(O)cc2O)c1               1
35  c1ccc(/C(=N\N=C(/c2ccccc2)c2cccs2)c2cccs2)cc1               1
36  O=C(NCCNC(=O)c1ccc(Cl)cc1Cl)c1ccc(Cl)cc1Cl               1
